Target: recombinant human SphK1 (Homo sapiens, UniProt Q9NYA1)
Sequence (Q9NYA1 whole entry): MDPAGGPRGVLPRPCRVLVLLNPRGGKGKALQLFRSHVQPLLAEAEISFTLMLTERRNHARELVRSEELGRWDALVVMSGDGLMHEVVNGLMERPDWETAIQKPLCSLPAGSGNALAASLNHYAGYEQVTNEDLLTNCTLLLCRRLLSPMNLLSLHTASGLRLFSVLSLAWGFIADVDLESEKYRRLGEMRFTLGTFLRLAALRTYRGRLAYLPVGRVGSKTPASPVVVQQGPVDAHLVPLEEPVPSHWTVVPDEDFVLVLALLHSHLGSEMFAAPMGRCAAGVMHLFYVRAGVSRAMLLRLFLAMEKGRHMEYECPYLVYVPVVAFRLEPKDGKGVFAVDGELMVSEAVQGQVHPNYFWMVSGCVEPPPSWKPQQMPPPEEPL
Assay: Fluorometric NBD-sphingosine sphingosine kinase inhibition assay, SphK1
Conditions: read-out: Spk1 % (inhibition), replicate B, 10 μM, Tables S3-S5
ASSAY READOUT: inhibition at 10 µM (%)
Express it in %; write the number only.

Some solved entries appear below for comparison.
COMPOUND | ASSAY READOUT | ENDPOINT RESULT
O=Cc1ccc2c(n1)C(=O)C(Oc1ccc(Br)cc1)=CC2=O [Compound 19] | inhibition at 10 µM | 1.8
O=C1C=C(Oc2ccc(F)cc2)C(=O)c2nc(CN3CCC[C@@H]3CO)ccc21 [Compound 21] | inhibition at 10 µM | 75.8

// switching to the query compound
stdin: Identify measured inhibition at 10 µM associated with Cc1ccc2c(n1)C(=O)C(Oc1ccc(Cl)c(Cl)c1)=CC2=O [Compound 8]
stdout: 32.1
